These data points were gathered from patent US5861400A.

Consider the following compounds; for each one, report its IC50.
tested on: AR 1.0 cells; assay: Proliferation/toxicity assay, compound alone and with cytotoxic agent (sulphorhodamine B); format: cell-based, mouse; conditions: cytotoxic agent (doxorubicin) 1.00 μg/ml; 5760 min; read-out: TOXICITY WITH CYTOTOXIC AGENT (IC 50 μM)
One number for each entry, in µM.

> print(dat)
                            chemical.smiles  unit.label  reported.measurement
1  COc1ccc(/C=c2\[nH]c(=O)/c(=C/c3cccs3)n(C)c2=O)cc1          µM                     6

Qu. GET /values?readout=IC50&item= Cn1c(=O)/c(=C/c2cn(C(=O)OC(C)(C)C)c3ccccc23)n(C)c(=O)/c1=C/c1ccccc1
Ans. 0.8
